target: mTORC2 (Homo sapiens (Human))
assay.text: mTORC2 inhibitory activity: phosphorylation of AKT in A431 cells (HTRF)
experimental.setup: 3 hours at 37° C.
measured.property: IC50
Kindly format the answer as number then unit.

Could you share which IC50 value was measured for CC(C)Cn1nc(-c2ccc3oc(N)nc3c2)c2c(Cl)nc(N)nc21 [Example 23] ?
5.9 nM

For the compound shown here, CC(C)n1nc(-c2ccc3oc(NC4CC4)nc3c2)c2c(N)nc(N)nc21 [Example 28] , give the reported IC50.
40.2 nM

Look up IC50 for this compound: CNc1nc(N)c2c(-c3ccc4oc(N)nc4c3)nn(C(C)C)c2n1 [Example 26]
62.2 nM

Return reported IC50; argument: COc1cc2oc(N)nc2cc1-c1nn(CC(C)(C)C)c2nc(N)nc(N)c12 [Example 18]
4.3 nM

Param item = CC1(Cn2nc(-c3cc4nc(N)oc4cc3F)c3c(N)nc(N)nc32)CCC1 [Example 4] ; retrieve measured IC50.
3.4 nM

Fill in the blank: the reported IC50 of CSC(C)(C)Cn1nc(-c2ccc3oc(N)nc3c2)c2c(N)nc(N)nc21 [Example 16] is ____.
10.2 nM

###

measured.property: pKi
# pKi: negative log10 of molar concentration; output just the value

Reported pKi for mTOR (Homo sapiens (Human), UniProt P42345), given `CC(C)[C@H](C)n1nc(-c2cc3nc(N)oc3cc2Cl)c2c(N)nc(N)nc21` ?
8.09

For the record `CC(C)n1nc(-c2ccc3oc(N)nc3c2)c2c(Cl)nc(N)nc21` , what value of pKi is listed for mTOR (Homo sapiens (Human), UniProt P42345)?
8.00

Quick check: pKi on mTOR (Homo sapiens (Human), UniProt P42345), item `CC(C)n1nc(-c2ccc3oc(NC4CC4)nc3c2)c2c(N)nc(N)nc21` ?
7.68

Write down the reported pKi of `CNc1nc(N)c2c(-c3ccc4oc(N)nc4c3)nn(C(C)C)c2n1` , test system: mTOR (Homo sapiens (Human), UniProt P42345).
7.87

Requested read-out pKi, target or system mTOR (Homo sapiens (Human), UniProt P42345), entry `CCC(C)(C)Cn1nc(-c2cc3nc(N)oc3cc2OC)c2c(N)nc(N)nc21`
8.54

Kindly state the measured pKi obtained for `CC(C)(CO)Cn1nc(-c2ccc3oc(N)nc3c2)c2c(N)nc(N)nc21` with mTOR (Homo sapiens (Human), UniProt P42345).
8.82

###

target: UniProt:P42345
assay.text: mTORC1 inhibitory activity: phosphorylation of S6RP in A431 cells (HTRF)
experimental.setup: 3 hours at 37° C.
measured.property: IC50 (nM)
The reply should contain only the number, in nM.

Consider the compound CC(C)n1nc(-c2ccc3oc(N)nc3c2)c2cnc(N)nc21 [Example 24] and give its measured IC50.
6.8

Can you share its IC50? I mean this compound: CCC(CC)(Cn1nc(-c2ccc3oc(N)nc3c2)c2c(N)nc(N)nc21)S(C)(=O)=O [Example 22]
10.2

# input compound: Cc1nc(N)nc2c1c(-c1ccc3oc(N)nc3c1)nn2CC(C)(C)C [Example 27] ; wanted: its IC50
8.1
